Recorded values, source PubChem BioAssay AID212.

System: BDF1 mice, colon carcinoma 38 sc, T/C %
run.description: NCI In Vivo Anticancer Drug Screen. Data for tumor model Colon Carcinoma 38 (subcutaneous) in B6D2F1 (BDF1) mice
particulars: endpoint: median tumor weight (est.); dose: 800.0 mg/kg/injection; schedule: Q07DX002 (ip); vehicle: Klucel (hydroxypropylcellulose) (HPC); higher = larger tumour
Results filed as inconclusive are left out.
Reported T/C values for the following compounds.

Some compounds with known T/C results, for comparison:
C(C#CCN1CCOCC1)#CCN1CCOCC1: 60 % of control
NC(=O)c1ncn(C2OC(CO)C(O)C2O)c1O (centres undefined): 75 % of control
CN(C)C(=O)SC1=C(c2c(Cl)cccc2Cl)C(=O)c2ccccc21: 91 % of control

Next:
Identify measured T/C associated with Cc1ccc(C2NC(=O)c3ccccc3N2)s1 (centres undefined)
90 % of control
